The following molecules are listed with their measured pAMPK/AMPK (%) values.
- target of assay: AdipoR1 (Homo sapiens)
- run description: Measurement of AMPK phosphorylation ability (Assay 1), HEK 293T cells, Western blotting
- Type: cell-based
- Set-up: HEK 293T cells (ATCC; CRL-3216, medium; host or cells: HEK 293T
- condition description: 25 μM, 10 minutes
- Description: The AMPK phosphorylation ability of the respective compounds according to the present invention was measured by using differentiated C2C12 cells or HEK 293T cells. […] The X-ray film was scanned to take the image, for which the band was measured by using the image analysis software “Image J” to determine the respective amounts of pAMPK and AMPK.
API: value field is a number in %; no unit string.

Some molecules with known pAMPK/AMPK (%) results, for comparison:
>>> assay_value("O=C(NCCC(=O)N1CCN(Cc2cccc(C(F)(F)F)c2)CC1)c1ccc([N+](=O)[O-])cc1 [Compound 67]")
70.98
>>> assay_value("CC(=O)c1ccc(OCC(=O)NC2CCN(Cc3ccccc3)CC2C)cc1 (stereo not drawn) [Compound 14]")
63.62

-- ask # return pAMPK/AMPK (%) for O=C(NCCC(=O)N1CCN(Cc2cccc(O)c2)CC1)c1ccc2ccccc2c1 [Compound 70] , test system: AdipoR1 (Homo sapiens)
-- reply 84.71

----------
The following compounds are listed with their measured pAMPK/AMPK (%) values.
- target of assay: AdipoR1 (Homo sapiens)
- Sequence (Q96A54 1-375): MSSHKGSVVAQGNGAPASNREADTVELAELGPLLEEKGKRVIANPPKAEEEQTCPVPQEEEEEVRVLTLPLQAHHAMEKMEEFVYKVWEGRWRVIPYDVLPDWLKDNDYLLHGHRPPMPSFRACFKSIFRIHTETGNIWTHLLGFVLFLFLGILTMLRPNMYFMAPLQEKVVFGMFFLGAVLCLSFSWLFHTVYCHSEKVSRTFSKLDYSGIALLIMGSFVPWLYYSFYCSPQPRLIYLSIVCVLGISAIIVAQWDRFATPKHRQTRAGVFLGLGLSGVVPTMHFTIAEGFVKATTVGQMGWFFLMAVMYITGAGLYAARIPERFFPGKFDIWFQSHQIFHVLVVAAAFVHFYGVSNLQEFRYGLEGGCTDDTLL
- run description: Measurement of AMPK phosphorylation ability (Assay 1), HEK 293T cells, Western blotting
- Type: cell-based
- Design: HEK 293T cells (ATCC; CRL-3216, medium; host or cells: HEK 293T
- condition description: 50 μM, 10 minutes
API: value field is a number in %; no unit string.

Some compounds with known pAMPK/AMPK (%) results, for comparison:
>>> assay_value("Cc1ccc(C(=O)N2CCC(NC(=O)COc3ccc(C4SCCCS4)cc3)CC2)cc1")
74.42
>>> assay_value("CCC(=O)c1ccc(OCC(=O)NC2CCN(Cc3ccccc3)CC2C)cc1 (centres unmarked)")
72.81
>>> assay_value("CCOc1ccc(OCC(=O)NC2CCN(Cc3cccc(C(F)(F)F)c3)CC2)cc1")
91.33
>>> assay_value("CCC(=O)c1ccc(OCC(=O)NC2CCN(Cc3ccc(Cl)c(Cl)c3)CC2)cc1")
75.82

Query compound follows.
-- ask Specify measured pAMPK/AMPK (%) for CCCOc1ccc(OCC(=O)NC2CCN(C(C)c3ccccc3)CC2)cc1 (centres unmarked) .
-- reply 82.95
